Hey, just so you know, these numbers are from paper PMC8513079.

ASSAY_TARGET: DOR (T7-tag-DOR) in HEK293 cells (Homo sapiens)
Construct: T7-tag; expressed in transfected cells
Sequence (P41143 whole entry): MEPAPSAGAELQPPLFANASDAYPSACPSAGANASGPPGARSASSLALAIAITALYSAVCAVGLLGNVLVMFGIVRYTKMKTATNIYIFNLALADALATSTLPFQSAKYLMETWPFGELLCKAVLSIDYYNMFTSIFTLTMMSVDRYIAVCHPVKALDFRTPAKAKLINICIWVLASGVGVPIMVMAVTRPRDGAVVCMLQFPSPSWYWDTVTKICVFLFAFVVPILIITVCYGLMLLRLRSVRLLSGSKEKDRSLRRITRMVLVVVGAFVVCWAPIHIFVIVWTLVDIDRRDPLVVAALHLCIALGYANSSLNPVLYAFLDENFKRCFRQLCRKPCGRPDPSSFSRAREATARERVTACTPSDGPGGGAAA
ASSAY_PROCEDURE: cADDis cAMP assay, DOR
Format: cell-based
Would you kindly list EC50 for each of these substances?
Dear colleague, please send the value followed by its unit.

SUBSTANCE	EC50
H-YPLDLF-OH [Rubiscolin-6, H-Tyr-Pro-Leu-Asp-Leu-Phe-OH]	0.316 µM

Let us examine a further case.
// sample H-YPLDL-OH [Rubiscolin-5, H-Tyr-Pro-Leu-Asp-Leu-OH] , its EC50 was 0.501 µM
